Measured MIC50 of individual entries
Test system: Pseudomonas aeruginosa
Test: Antibacterial activity against ciprofloxacin-susceptible Pseudomonas aeruginosa by CLSI M7-A7 method
Assay type: functional
Output spec: scalar in µg/mL, unitless text.

Example results:
Compound | Value Units | MIC50
C[C@@H](O)[C@H]1C(=O)N2C(C(=O)O)=C(SCCNC=N)C[C@H]12 [IMIPENEM ANHYDROUS] | µg/mL | 0.5
C[C@H]1COc2c(N3CCN(C)CC3)c(F)cc3c(=O)c(C(=O)O)cn1c23.C[C@H]1COc2c(N3CCN(C)CC3)c(F)cc3c(=O)c(C(=O)O)cn1c23.O | µg/mL | 0.5
CC(C)(O/N=C(\C(=O)N[C@@H]1C(=O)N2C(C(=O)[O-])=C(C[n+]3ccccc3)CS[C@H]12)c1csc(N)n1)C(=O)O | µg/mL | 2

Please indicate MIC50 recorded for NC[C@H]1O[C@H](O[C@H]2[C@H](O)[C@@H](O[C@H]3O[C@H](CO)[C@@H](O)[C@H](N)[C@H]3O)[C@H](N)C[C@@H]2N)[C@H](N)C[C@@H]1O
2

Please indicate MIC50 recorded for N[C@@H]1CCCCN(c2c(F)cc3c(=O)c(C(=O)O)cn(C4CC4)c3c2Cl)C1
1

* * *

System: Bacteroides fragilis
Assay: Antibacterial activity against Bacteroides fragilis by CLSI M11-A7 method
Format: functional
Measurement Type: MIC90

Compound | MIC90
CCC[C@@H]1C[C@@H](C(=O)N[C@@H]([C@H]2O[C@H](SC)[C@H](O)[C@@H](O)[C@H]2O)[C@H](C)Cl)N(C)C1 | > 8 µg/mL
COc1c(N2CCNC(C)C2)c(F)cc2c(=O)c(C(=O)O)cn(C3CC3)c12 (centres undefined) | 4 µg/mL
Cc1ncc([N+](=O)[O-])n1CCO | 2 µg/mL

Please turn your attention to the following entry.
Please indicate MIC90 recorded for N[C@@H]1CCCCN(c2c(F)cc3c(=O)c(C(=O)O)cn(C4CC4)c3c2Cl)C1
1 µg/mL

* * *

Measured MIC50 of individual entries
Tested on: Listeria monocytogenes
Assay: Antibacterial activity against Listeria monocytogenes by CLSI M100-S18 method
Type: functional

Molecule Smiles | Result Value
C[C@H]1COc2c(N3CCN(C)CC3)c(F)cc3c(=O)c(C(=O)O)cn1c23.C[C@H]1COc2c(N3CCN(C)CC3)c(F)cc3c(=O)c(C(=O)O)cn1c23.O | 0.5 µg/mL

Please indicate MIC50 recorded for CC[C@H]1OC(=O)[C@H](C)[C@@H](O[C@H]2C[C@@](C)(OC)[C@@H](O)[C@H](C)O2)[C@H](C)[C@@H](O[C@@H]2O[C@H](C)C[C@H](N(C)C)[C@H]2O)[C@](C)(O)C[C@@H](C)CN(C)[C@H](C)[C@@H](O)[C@]1(C)O
0.5 µg/mL

* * *

Measured MIC90 of individual entries
Test system: Streptococcus oralis
Test: Antibacterial activity against Streptococcus oralis by CLSI M100-S18 method
Format: functional

Compound | Result Value
COc1c(N2CCNC(C)C2)c(F)cc2c(=O)c(C(=O)O)cn(C3CC3)c12 (stereo unspecified) [GATIFLOXACIN] | 1 µg/mL
N[C@@H]1CCCCN(c2c(F)cc3c(=O)c(C(=O)O)cn(C4CC4)c3c2Cl)C1 [BESIFLOXACIN] | 0.12 µg/mL

Please indicate MIC90 recorded for C[C@H]1COc2c(N3CCN(C)CC3)c(F)cc3c(=O)c(C(=O)O)cn1c23.C[C@H]1COc2c(N3CCN(C)CC3)c(F)cc3c(=O)c(C(=O)O)cn1c23.O [LEVOFLOXACIN]
4 µg/mL

Please indicate MIC90 recorded for CC1(C)S[C@@H]2[C@H](NC(=O)Cc3ccccc3)C(=O)N2[C@H]1C(=O)O [PENICILLIN G]
32 µg/mL

Please indicate MIC90 recorded for NC[C@H]1O[C@H](O[C@H]2[C@H](O)[C@@H](O[C@H]3O[C@H](CO)[C@@H](O)[C@H](N)[C@H]3O)[C@H](N)C[C@@H]2N)[C@H](N)C[C@@H]1O [TOBRAMYCIN]
> 8 µg/mL

Please indicate MIC90 recorded for CC[C@H]1OC(=O)[C@H](C)[C@@H](O[C@H]2C[C@@](C)(OC)[C@@H](O)[C@H](C)O2)[C@H](C)[C@@H](O[C@@H]2O[C@H](C)C[C@H](N(C)C)[C@H]2O)[C@](C)(O)C[C@@H](C)CN(C)[C@H](C)[C@@H](O)[C@]1(C)O [AZITHROMYCIN]
1 µg/mL

* * *

Measured MIC90 of individual entries
Tested on: Citrobacter freundii
Assay: Antibacterial activity against Citrobacter freundii by CLSI M7-A7 method
Type: functional
Output spec: scalar in µg/mL, unitless text.

Example results:
Molecule | Result Value
N[C@@H]1CCCCN(c2c(F)cc3c(=O)c(C(=O)O)cn(C4CC4)c3c2Cl)C1 [BESIFLOXACIN] | 4
NC[C@H]1O[C@H](O[C@H]2[C@H](O)[C@@H](O[C@H]3O[C@H](CO)[C@@H](O)[C@H](N)[C@H]3O)[C@H](N)C[C@@H]2N)[C@H](N)C[C@@H]1O [TOBRAMYCIN] | 0.5
C[C@H]1COc2c(N3CCN(C)CC3)c(F)cc3c(=O)c(C(=O)O)cn1c23.C[C@H]1COc2c(N3CCN(C)CC3)c(F)cc3c(=O)c(C(=O)O)cn1c23.O [LEVOFLOXACIN] | 2

Please turn your attention to the following entry.
Look up Citrobacter freundii data: MIC90 of C[C@@H](O)[C@H]1C(=O)N2C(C(=O)O)=C(SCCNC=N)C[C@H]12 [IMIPENEM ANHYDROUS] , then report it.
8

* * *

Tested on: Klebsiella oxytoca
Test: Antibacterial activity against Klebsiella oxytoca assessed as percent susceptible isolates by CLSI M7-A7 method
Format: functional
Measurement Type: Activity (%)
Output spec: scalar in %, unitless text.

Compound | Activity (%)
CC[C@H]1OC(=O)[C@H](C)[C@@H](O[C@H]2C[C@@](C)(OC)[C@@H](O)[C@H](C)O2)[C@H](C)[C@@H](O[C@@H]2O[C@H](C)C[C@H](N(C)C)[C@H]2O)[C@](C)(O)C[C@@H](C)CN(C)[C@H](C)[C@@H](O)[C@]1(C)O [AZITHROMYCIN] | 90

Please indicate Activity recorded for COc1c(N2CCNC(C)C2)c(F)cc2c(=O)c(C(=O)O)cn(C3CC3)c12 (centres undefined) [GATIFLOXACIN]
96

Please indicate Activity recorded for C[C@H]1COc2c(N3CCN(C)CC3)c(F)cc3c(=O)c(C(=O)O)cn1c23.C[C@H]1COc2c(N3CCN(C)CC3)c(F)cc3c(=O)c(C(=O)O)cn1c23.O [LEVOFLOXACIN]
90

Please indicate Activity recorded for CC(C)(O/N=C(\C(=O)N[C@@H]1C(=O)N2C(C(=O)[O-])=C(C[n+]3ccccc3)CS[C@H]12)c1csc(N)n1)C(=O)O [CEFTAZIDIME]
100

* * *

Assay: Drug concentration in human tears at 0.6% administered topically as single dose measured after 24 hrs
Type: ADME
Conditions: topical or ocular, read-out: Drug uptake
Measurement Type: concentration at 24 h (ng/mL)
Output spec: scalar in ng/mL, unitless text.

Please indicate concentration at 24 h recorded for N[C@@H]1CCCCN(c2c(F)cc3c(=O)c(C(=O)O)cn(C4CC4)c3c2Cl)C1
1600

* * *

Test system: Neisseria meningitidis
Experiment: Antibacterial activity against Neisseria meningitidis by CLSI M7-A7 method
Assay type: functional
Measured MIC50 of individual entries
Output spec: scalar in ng/mL, unitless text.

Example results:
Molecule Smiles | Value Units | MIC50
CC[C@H]1OC(=O)[C@H](C)[C@@H](O[C@H]2C[C@@](C)(OC)[C@@H](O)[C@H](C)O2)[C@H](C)[C@@H](O[C@@H]2O[C@H](C)C[C@H](N(C)C)[C@H]2O)[C@](C)(O)C[C@@H](C)CN(C)[C@H](C)[C@@H](O)[C@]1(C)O | ng/mL | 60
C[C@H]1COc2c(N3CCN(C)CC3)c(F)cc3c(=O)c(C(=O)O)cn1c23.C[C@H]1COc2c(N3CCN(C)CC3)c(F)cc3c(=O)c(C(=O)O)cn1c23.O | ng/mL | 8

Please turn your attention to the following entry.
Please indicate MIC50 recorded for N[C@@H]1CCCCN(c2c(F)cc3c(=O)c(C(=O)O)cn(C4CC4)c3c2Cl)C1
8

* * *

System: Serratia marcescens
Test: Antibacterial activity against Serratia marcescens by CLSI M7-A7 method
Format: functional
Measured MIC50 of individual entries
Output spec: scalar in µg/mL, unitless text.

Example results:
Compound | Value Units | MIC50
NC[C@H]1O[C@H](O[C@H]2[C@H](O)[C@@H](O[C@H]3O[C@H](CO)[C@@H](O)[C@H](N)[C@H]3O)[C@H](N)C[C@@H]2N)[C@H](N)C[C@@H]1O | µg/mL | 0.5
N[C@@H]1CCCCN(c2c(F)cc3c(=O)c(C(=O)O)cn(C4CC4)c3c2Cl)C1 | µg/mL | 0.25
CC(C)(O/N=C(\C(=O)N[C@@H]1C(=O)N2C(C(=O)[O-])=C(C[n+]3ccccc3)CS[C@H]12)c1csc(N)n1)C(=O)O | µg/mL | 0.06
C[C@H]1COc2c(N3CCN(C)CC3)c(F)cc3c(=O)c(C(=O)O)cn1c23.C[C@H]1COc2c(N3CCN(C)CC3)c(F)cc3c(=O)c(C(=O)O)cn1c23.O | µg/mL | 0.12

Please indicate MIC50 recorded for C[C@@H](O)[C@H]1C(=O)N2C(C(=O)O)=C(SCCNC=N)C[C@H]12 [IMIPENEM ANHYDROUS]
2
